These entries and their values trace back to patent US20150140169.

- assayed.system: T1, alpha-s1 casein from Bos taurus
- T1 chain: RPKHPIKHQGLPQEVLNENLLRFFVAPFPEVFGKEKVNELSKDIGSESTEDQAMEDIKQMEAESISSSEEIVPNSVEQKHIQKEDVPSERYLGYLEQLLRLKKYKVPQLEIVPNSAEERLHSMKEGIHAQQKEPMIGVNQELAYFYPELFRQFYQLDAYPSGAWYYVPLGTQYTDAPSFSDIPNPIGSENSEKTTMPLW
assay.metric: αs1 CN, 24 hours, 11° C. (Volume)
Answer with a number only, understood to be in Volume.

Data request, read-out αs1 CN, 24 hours, 11° C., for camel chymosin variant #158 (L295F) (protein) GKVAREPLTSYLDSQYFGKIYIGTPPQEFTVVFDTGSSDLWVPSIYCKSNVCKNHHRFDPRKSSTFRNLGKPLSIHYGTGSMEGFLGYDTVTVSNIVDPNQTVGLSTEQPGEVFTYSEFDGILGLAYPSLASEYSVPVFDNMMDRHLVARDLFSVYMDRNGQGSMLTLGAIDPSYYTGSLHWVPVTLQQYWQFTVDSVTINGVAVACVGGCQAILDTGTSVLFGPSSDILKIQMAIGATENRYGEFDVNCGNLRSMPTVVFEINGRDYPLSPSAYTSKDQGFCTSGFQGDNNSEFWILGDVFIREYYSVFDRANNRVGLAKAI 9.8e+06
